- System: rCedV
- Method summary: microbe, parasite or virus in culture
- Format: cell-based
- Stated conditions: Cedar virus, BSR-T7/5, 24 h
Reported endpoint: IC50 (nM)
Answer with a number only, understood to be in nM.

Form: Entry = O=c1ccn([C@@H]2O[C@](F)(CO)[C@@H](O)[C@H]2O)c(=O)[nH]1 [EIDD-2749, 4′-Fluorouridine] | System = rCedV | IC50 = ____
700

====

- Study target: CedV vRdRp (rCedV TC-tr minigenome) (Cedar virus)
- Assay type: cell-based
Reported endpoint: IC50 (nM)
Answer with a number only, understood to be in nM.

Entry O=c1ccn([C@@H]2O[C@](F)(CO)[C@@H](O)[C@H]2O)c(=O)[nH]1 [EIDD-2749, 4′-Fluorouridine] : reported IC50 = ?
2100

====

- Study target: CedV vRdRp (rCedV TC-tr minigenome) (Cedar virus)
- Format: cell-based
- Stated conditions: read-out: IC50
Reported endpoint: IC50 (µM)
Answer with a number only, understood to be in µM.

Entry NC(=O)c1c(F)cccc1-c1cccc2cnccc12 [GHP-88309] : reported IC50 = ?
5.7

====

- Study target: GhV vRdRp (rGhV TC-tr minigenome) (Ghana virus)
Reported endpoint: pIC50
API: returns pIC50 as number; meaning -log10 of concentration in mol/L.

Entry NC(=O)c1c(F)cccc1-c1cccc2cnccc12 [GHP-88309] : reported pIC50 = ?
5.77
